target: human TGFßRII (antigen of the Octet experiments) (human, UniProt P37173 23-166); assay: BLI (Octet)
Sequence (P37173 23-166): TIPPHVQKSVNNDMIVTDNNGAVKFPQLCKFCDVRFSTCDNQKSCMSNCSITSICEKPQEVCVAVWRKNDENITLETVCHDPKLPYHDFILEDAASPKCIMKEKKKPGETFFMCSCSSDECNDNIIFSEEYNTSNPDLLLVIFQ
Would you kindly list pKd for each of these binders?
Give bare numbers, as −log10 of the molar value.

• H1.23 L1 XENP34479 (antibody, V domains shown) VH: QLQVQESGPGLVKPSETLSLTCTVSGGSISNSGFSWGWIRQPPGKGLEWIGSFYYGEKTYYNPSLKSRATISIDTSKSQFSLKLSSVTAADTAVYYCPRGPTMIRGVIDSWGQGTLVTVSS VL: EIVLTQSPATLSLSPGERATLSCRASQSVRSYLAWYQQKPGQAPRLLIYDASNRATGIPARFSGSGSGTDFTLTISSLEPEDFAVYYCQQRSNWPPTFGQGTKVEIK = 9.12

get_value(item= H1.38 L1 XENP34494 (antibody, V domains shown) VH: QLQVQESGPGLVKPSETLSLTCTVSGGSISNSYFSWGWIRQAPGKGLEWIGSFYYGEKTYYNPSLKSRATISIDTSKSQFSLKLSSVTAADTAVYYCPRGPTMIRGVIDSWGQGTLVTVSS VL: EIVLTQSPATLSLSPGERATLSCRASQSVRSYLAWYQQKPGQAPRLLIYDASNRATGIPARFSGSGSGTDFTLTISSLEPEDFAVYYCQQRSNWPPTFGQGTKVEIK , readout=pKd) returns 9.49
